# Cyno ENTPD2 NIH/3T3 Assay IC50 listing for each entry below
test.target: T1, cynomolgus ENTPD2, full length, on cells (cynomolgus macaque, UniProt Q9Y5L3 1-495 (human entry))
T1 chain: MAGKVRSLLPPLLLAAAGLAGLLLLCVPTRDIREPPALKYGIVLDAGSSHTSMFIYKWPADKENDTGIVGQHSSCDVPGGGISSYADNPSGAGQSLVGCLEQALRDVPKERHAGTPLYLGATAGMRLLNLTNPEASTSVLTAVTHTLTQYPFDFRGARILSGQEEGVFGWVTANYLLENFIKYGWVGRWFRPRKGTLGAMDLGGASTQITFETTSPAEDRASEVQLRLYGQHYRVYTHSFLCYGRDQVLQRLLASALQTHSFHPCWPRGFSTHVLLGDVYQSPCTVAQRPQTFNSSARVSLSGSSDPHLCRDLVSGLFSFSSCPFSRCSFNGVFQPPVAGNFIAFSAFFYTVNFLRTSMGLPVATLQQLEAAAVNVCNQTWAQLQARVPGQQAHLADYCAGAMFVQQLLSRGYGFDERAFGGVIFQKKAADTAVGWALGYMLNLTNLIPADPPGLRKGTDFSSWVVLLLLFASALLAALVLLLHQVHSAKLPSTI
experiment: cell-based or functional assay

Some solved entries appear below for comparison.
ANTI-HUMAN ENTPD2 MAB4 (antibody, human IgG1, kappa, V domains shown) VH: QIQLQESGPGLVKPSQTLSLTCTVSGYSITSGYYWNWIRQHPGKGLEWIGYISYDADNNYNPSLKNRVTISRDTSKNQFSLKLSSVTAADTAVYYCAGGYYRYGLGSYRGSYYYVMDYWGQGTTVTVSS VL: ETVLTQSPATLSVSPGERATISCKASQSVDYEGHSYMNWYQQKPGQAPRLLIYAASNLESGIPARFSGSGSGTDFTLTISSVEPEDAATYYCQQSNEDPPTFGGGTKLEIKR    2.2 nM
ANTI-HUMAN ENTPD2 MAB18 (antibody, human IgG1, kappa, V domains shown) VH: DIQLQESGPGLVKPSQSLSLTCSVTGYSITSGYYWNWIRQFPGNKLEWMGYISYDGDNNYNPSLKNRISITRDTSKNQFFLKLSSVTTEDTATYYCAGGYYRYGLGSYSGSYYYVMDYWGQGTSVTVSS VL: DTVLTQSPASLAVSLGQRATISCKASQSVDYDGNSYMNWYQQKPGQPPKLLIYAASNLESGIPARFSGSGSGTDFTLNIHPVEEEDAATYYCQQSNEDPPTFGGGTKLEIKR    20 nM
ANTI-HUMAN ENTPD2 MAB3 (antibody, human IgG1, kappa, V domains shown) VH: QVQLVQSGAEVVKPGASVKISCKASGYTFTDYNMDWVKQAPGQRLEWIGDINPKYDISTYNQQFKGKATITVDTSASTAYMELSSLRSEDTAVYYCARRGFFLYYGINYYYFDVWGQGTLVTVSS VL: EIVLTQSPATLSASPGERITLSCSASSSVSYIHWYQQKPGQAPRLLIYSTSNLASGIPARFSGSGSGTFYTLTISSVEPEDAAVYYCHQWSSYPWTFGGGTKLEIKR    5.8 nM
ANTI-HUMAN ENTPD2 MAB16 (antibody, human IgG1, kappa, V domains shown) VH: DIQLQESGPGLVKPSQSLSLTCSVTGYSITSGYYWNWIRQFPGNKLEWMGYISYDGDNNYNPSLKNRISITRDTSKNQFFLKLSSVTTEDTATYYCAGGYYRYGLSYYYVMDYWGQGTSVTVSS VL: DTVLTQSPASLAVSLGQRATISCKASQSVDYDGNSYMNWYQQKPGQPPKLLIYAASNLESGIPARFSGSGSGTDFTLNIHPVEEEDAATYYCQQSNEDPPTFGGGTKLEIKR    > 133 nM

Ask: # lookup: Cyno ENTPD2 NIH/3T3 Assay IC50 of ANTI-HUMAN ENTPD2 MAB17 (antibody, human IgG1, kappa, V domains shown) VH: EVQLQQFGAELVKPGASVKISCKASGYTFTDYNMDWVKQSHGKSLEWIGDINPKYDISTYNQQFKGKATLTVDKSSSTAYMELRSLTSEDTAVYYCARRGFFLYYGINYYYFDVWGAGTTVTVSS VL: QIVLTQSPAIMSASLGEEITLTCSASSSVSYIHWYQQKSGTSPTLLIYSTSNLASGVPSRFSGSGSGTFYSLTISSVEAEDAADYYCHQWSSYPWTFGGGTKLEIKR
Result: 1 nM
